From: patent US9765092B2

# studyTarget: human TPH1 (Homo sapiens (Human), UniProt P17752)
# Sequence (P17752 whole entry): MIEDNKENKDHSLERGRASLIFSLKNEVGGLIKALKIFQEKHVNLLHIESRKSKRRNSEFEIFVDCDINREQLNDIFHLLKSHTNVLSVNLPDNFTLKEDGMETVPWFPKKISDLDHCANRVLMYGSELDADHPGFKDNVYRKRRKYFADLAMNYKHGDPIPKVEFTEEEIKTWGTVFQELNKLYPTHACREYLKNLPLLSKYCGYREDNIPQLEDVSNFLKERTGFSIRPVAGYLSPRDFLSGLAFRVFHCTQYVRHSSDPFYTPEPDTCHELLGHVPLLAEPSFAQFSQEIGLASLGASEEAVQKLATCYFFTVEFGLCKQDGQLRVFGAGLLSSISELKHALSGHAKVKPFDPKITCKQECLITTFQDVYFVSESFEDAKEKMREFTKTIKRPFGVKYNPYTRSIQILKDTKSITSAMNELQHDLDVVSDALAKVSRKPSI
# experimentNotes: Biochemical in vitro assay using fluorescence readout (TPH1 inhibition)
# details: full length human TPH1, 40 μM L-tryptophan, 15° C., 60 minutes, fluorescence at 540 nm; mean if determined several times
reportedProperty: pIC50
Please express pIC50 as -log10 of the molar concentration.

-- ask So what pIC50 did Cc1nn2c3c(nc2s1)CCN(C(=O)COc1ccc(C(F)(F)F)cc1Cl)C3c1cnc(N(C)C)s1 (stereo not shown) get with human TPH1 (Homo sapiens (Human), UniProt P17752)?
-- reply 6.89

-- ask Then what about the compound Cc1nn2c3c(nc2s1)CCN(C(=O)COc1ccc(N2CCOCC2)nc1Cl)C3c1cnc(N(C)C)s1 (stereo not shown) ?
-- reply 8.15

-- ask Then what about the compound Cc1nn2c3c(nc2s1)CCN(C(=O)COc1ccc(C(=O)N(C)C)nc1Cl)C3c1ncc(C(=O)N(C)C)s1 (stereo not shown) ?
-- reply 7.40

-- ask Then what about the compound Cc1nn2c3c(nc2s1)CCN(C(=O)COc1ccc(N2CC(F)(F)C2)nc1Cl)C3c1ncc(C(=O)N(C)C)s1 (stereo not shown) ?
-- reply 7.29

-- ask Then what about the compound Cc1nn2c3c(nc2s1)CCN(C(=O)COc1ccc(NS(=O)(=O)C2CC2)nc1Cl)C3c1ccc(Cl)cc1F (stereo not shown) ?
-- reply 8.15

-- ask Then what about the compound CONC(=O)c1ccc(OCC(=O)N2CCc3nc4sc(C)nn4c3C2c2ccc(Cl)cc2F)c(Cl)n1 (stereo not shown) ?
-- reply 8.22

-- ask Then what about the compound Cc1nn2c3c(nc2s1)CCN(C(=O)COc1ccc(N2CCOCC2)nc1Cl)C3c1sc(-c2nnn[nH]2)cc1F (stereo not shown) ?
-- reply 7.89
